The origin of these recorded values is patent US8865623B2.

# System: Echinochloa crus-galli (ECHCG)
# ASSAY REMARKS: Pre-emergence herbicidal activity, glasshouse pot test
# Format: in vivo
# CONDITION PARAMETERS: Echinochloa crus-galli, 312 h; Rate 250 g/ha; pre-emergence spray; evaluated after 13 days; read-out: Pre-emergence activity ECHCG (100=total damage to plant; 0=no damage to plant)
Classify by measured pest or weed control at 250 g/ha: t if it is equal to or exceeds 90%, f if it is smaller.

Field: example entries. Status: answers known.
>>> assigned_class("CCc1ccc(Oc2cc(C(F)(F)F)ccn2)cc1C1=C(O)C(C)(C)OC(C)(C)C1=O")
"t"
>>> assigned_class("CCc1ccc(Oc2nc(F)c(F)cc2F)cc1C1=C(O)C(C)(C)OC(C)(C)C1=O")
"t"
>>> assigned_class("CCc1ccc(Oc2ccc(F)cc2)cc1C1=C(O)CC(C)(C)CC1=O")
"f"
>>> assigned_class("CCc1ccc(Oc2cc(Cl)nc(C)n2)cc1C1=C(O)C(C)(C)OC(C)(C)C1=O")
"f"
>>> assigned_class("CCc1ccc(Oc2ccc([N+](=O)[O-])c(Cl)c2)cc1C1=C(O)C(C)(C)OC(C)(C)C1=O")
"t"

Ask | Entry `CCc1ccc(Oc2ncc(Cl)cn2)cc1C1=C(O)CC2(CCOCC2)CC1=O` : is its pest or weed control at 250 g/ha no less than 90%?
Reply | t

Ask | For `CCc1ccc(Oc2nc3ccc(OC)cc3s2)cc1C1=C(O)[C@@H]2CC[C@](C)(C1=O)C2(C)C` then?
Reply | f

Ask | For `CCc1ccc(Oc2cnc3cc(F)ccc3n2)cc1C1=C(O)CC2(CCOCC2)CC1=O` then?
Reply | t

Ask | For `CCc1ccc(Oc2nc3ccc([N+](=O)[O-])cc3s2)cc1C1=C(O)[C@H]2CC[C@H](C2)C1=O` then?
Reply | t

###

# Test system: Alopecurus myosuroides (ALOMY)
# ASSAY REMARKS: Pre-emergence herbicidal activity, glasshouse pot test
# Format: in vivo
# CONDITION PARAMETERS: Alopecurus myosuroides, 312 h; Rate 250 g/ha; pre-emergence spray; evaluated after 13 days; read-out: Pre-emergence activity ALOMY (100=total damage to plant; 0=no damage to plant)
Classify by measured pest or weed control at 250 g/ha: yes if it is equal to or exceeds 30%, no if it is smaller.

Field: example entries. Status: answers known.
>>> assigned_class("CCc1ccc(Oc2nc3c(Cl)cc(Cl)cc3s2)cc1C1=C(O)[C@@H]2CC[C@](C)(C1=O)C2(C)C")
"yes"
>>> assigned_class("CCc1ccc(Oc2ncc(Br)cn2)cc1C1=C(O)C(C)(C)OC(C)(C)C1=O")
"yes"
>>> assigned_class("CCc1ccc(Oc2ncc(Cl)cc2Cl)cc1C1=C(O)CC(C)(C)CC1=O")
"yes"
>>> assigned_class("CCc1ccc(Oc2nc3ccccc3s2)cc1C1=C(O)CC2(CCOCC2)CC1=O")
"yes"
>>> assigned_class("CCc1ccc(Oc2ccc(F)cc2)cc1C1=C(O)CCCC1=O")
"no"
>>> assigned_class("CCc1ccc(Oc2ncc(Cl)cc2C(F)(F)F)cc1C1=C(O)C(C)(C)OC(C)(C)C1=O")
"yes"

Ask | Entry `CCc1ccc(Oc2ccc(C(F)(F)F)cc2[N+](=O)[O-])cc1C1=C(O)[C@@H]2CC[C@](C)(C1=O)C2(C)C` : is its pest or weed control at 250 g/ha no less than 30%?
Reply | yes

Ask | For `CCc1ccc(Oc2ccc(Br)cc2)cc1C1=C(O)CC(C)(C)CC1=O` then?
Reply | yes

Ask | For `CCc1ccc(Oc2cc(OC)c(Cl)nn2)cc1C1=C(O)C(C)(C)OC(C)(C)C1=O` then?
Reply | no

Ask | For `CCc1ccc(Oc2ccc(Cl)cc2C)cc1C1=C(O)C(C)(C)OC(C)(C)C1=O` then?
Reply | no

Ask | For `CCc1ccc(Oc2nc3ccc(Cl)cc3s2)cc1C1=C(O)[C@@H]2CC[C@](C)(C1=O)C2(C)C` then?
Reply | yes

Ask | For `CCc1ccc(Oc2cc(F)cc(F)n2)cc1C1=C(O)C(C)(C)OC(C)(C)C1=O` then?
Reply | no

Ask | For `CCc1ccc(Oc2ccc(Cl)cc2F)cc1C1=C(O)C(C)(C)OC(C)(C)C1=O` then?
Reply | yes

Ask | For `CCc1ccc(Oc2ncc(Br)cn2)cc1C1=C(O)CC2(CCOCC2)CC1=O` then?
Reply | yes

Ask | For CCc1ccc(Oc2ccc(Cl)c(F)c2)cc1C1=C(O)[C@@H]2CC[C@](C)(C1=O)C2(C)C (single isomer, unassigned) then?
Reply | yes

Ask | For `CCc1ccc(Oc2ccc(Cl)c(F)c2)cc1C1=C(O)[C@H]2CC[C@H](C2)C1=O` then?
Reply | yes

Ask | For `CCc1ccc(Oc2ccc(C(F)(F)F)cc2[N+](=O)[O-])cc1C1=C(O)C(C)(C)OC(C)(C)C1=O` then?
Reply | no

Ask | For `CCc1ccc(Oc2cnc3ccc(Br)cc3n2)cc1C1=C(O)C(C)(C)OC(C)(C)C1=O` then?
Reply | yes

Ask | For CCc1ccc(Oc2ccc(Cl)cc2)cc1C1=C(O)[C@@H]2CC[C@](C)(C1=O)C2(C)C (single isomer, unassigned) then?
Reply | yes

Ask | For `CCc1ccc(Oc2ccc(Cl)cc2F)cc1C1=C(O)CCC(C)(C)C1=O` then?
Reply | yes

Ask | For `CCc1ccc(Oc2ccc(C#N)cc2F)cc1C1=C(O)CC2(CCOCC2)CC1=O` then?
Reply | yes
